Biological target: T1, His-tagged CEACAM1 (human, UniProt P13688 35-428)
T1 construct: 45 kDa SPR analyte; also called CEACAM1-HIS; CEACAM1 analyte
T1 sequence: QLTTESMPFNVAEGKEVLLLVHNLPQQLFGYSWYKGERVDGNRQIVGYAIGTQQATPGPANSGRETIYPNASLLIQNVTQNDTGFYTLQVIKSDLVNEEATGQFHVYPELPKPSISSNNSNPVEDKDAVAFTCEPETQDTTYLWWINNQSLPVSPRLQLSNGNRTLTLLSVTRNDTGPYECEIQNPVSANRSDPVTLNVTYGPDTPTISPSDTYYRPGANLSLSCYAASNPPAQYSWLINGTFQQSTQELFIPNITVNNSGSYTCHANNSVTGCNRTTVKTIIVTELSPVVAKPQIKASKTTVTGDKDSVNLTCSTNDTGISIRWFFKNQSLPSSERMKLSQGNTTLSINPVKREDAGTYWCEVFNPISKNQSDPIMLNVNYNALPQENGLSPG
Test: SPR single-cycle, supernatant IgG captured
Readout Kind: koff (s⁻¹)
Please state the figure in s⁻¹; there is no need to write the unit.

Binder	Readout Kind	Data Value
9B3_9E5_8H3/CP08F05 (antibody, IgG4, V domains shown, IgG4 (S241P), kappa) VH: EVQLLESGGGLVQPGGSLRLSCAASGFTFNAHAISWVRQAPGKGLEWVATISSGGTYTYYPDSVKGRFTISRDNSKNTLYLQMNSLKAEDTAMYYCARHGFDYFPYWFAHWGQGTLVTVSS VL: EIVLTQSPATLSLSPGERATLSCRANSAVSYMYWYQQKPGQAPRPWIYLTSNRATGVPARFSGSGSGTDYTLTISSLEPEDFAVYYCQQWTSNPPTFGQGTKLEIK	koff	0.018

Let us examine a further case.
Form field: reported koff of 8H3_9E5/CP08F05 (antibody, IgG4, V domains shown, IgG4 (S241P), kappa) VH: EVQLLESGGGLVQPGGSLRLSCAASGFIFSSHGMSWVRQAPGKGLEWVATISSGGTYTYYPDSVKGRFTISRDNSKNTLYLQMNSLKAEDTAMYYCARHGFDYFPYWFAHWGQGTLVTVSS VL: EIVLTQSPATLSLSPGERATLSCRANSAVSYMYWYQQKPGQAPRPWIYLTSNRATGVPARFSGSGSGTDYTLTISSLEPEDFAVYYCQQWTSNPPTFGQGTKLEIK
0.028

Ref: patent US20250074980A1
